Taken from patent EP2727916A1.

SYSTEM_TESTED: MAO-B (Rattus norvegicus, UniProt P19643)
Construct: from tissue; host or cells: rat brain homogenate per the methods
Sequence (P19643 whole entry): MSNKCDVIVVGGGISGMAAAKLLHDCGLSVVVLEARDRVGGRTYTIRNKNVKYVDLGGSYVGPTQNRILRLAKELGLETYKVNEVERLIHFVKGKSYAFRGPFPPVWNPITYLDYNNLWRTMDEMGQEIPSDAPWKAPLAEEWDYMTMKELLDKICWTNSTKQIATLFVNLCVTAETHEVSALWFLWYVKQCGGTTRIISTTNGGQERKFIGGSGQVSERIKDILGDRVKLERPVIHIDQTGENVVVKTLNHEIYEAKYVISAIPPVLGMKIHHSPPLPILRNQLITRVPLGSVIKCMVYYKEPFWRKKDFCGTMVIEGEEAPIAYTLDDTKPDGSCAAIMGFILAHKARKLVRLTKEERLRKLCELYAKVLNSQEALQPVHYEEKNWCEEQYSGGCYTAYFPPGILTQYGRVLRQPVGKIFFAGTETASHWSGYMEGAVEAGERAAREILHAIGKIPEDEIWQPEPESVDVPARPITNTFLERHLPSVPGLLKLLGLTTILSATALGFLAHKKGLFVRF
MEASUREMENT_NOTES: Time-dependence of MAO-B inhibition (pre-incubation times)
Assay type: biochemical
APPLIED_CONDITIONS: pre-incubation time 240 min
MEASUREMENT_TYPE: pIC50
When answering, recall that pIC50 equals minus log10 of the concentration in mol/L, and write that number alone.

Give the measured pIC50 of C#CCN(Cc1ccc(O)c2ncccc12)C(C#N)CCC1CCN(Cc2ccccc2)CC1 (stereo not shown) .
5.92

----------
SYSTEM_TESTED: bovine lung SSAO (Bos taurus)
Construct: and bovine lung SSAO by compounds of the invention; from tissue; host or cells: bovine lung
Sequence (Q9TTK6 1-763): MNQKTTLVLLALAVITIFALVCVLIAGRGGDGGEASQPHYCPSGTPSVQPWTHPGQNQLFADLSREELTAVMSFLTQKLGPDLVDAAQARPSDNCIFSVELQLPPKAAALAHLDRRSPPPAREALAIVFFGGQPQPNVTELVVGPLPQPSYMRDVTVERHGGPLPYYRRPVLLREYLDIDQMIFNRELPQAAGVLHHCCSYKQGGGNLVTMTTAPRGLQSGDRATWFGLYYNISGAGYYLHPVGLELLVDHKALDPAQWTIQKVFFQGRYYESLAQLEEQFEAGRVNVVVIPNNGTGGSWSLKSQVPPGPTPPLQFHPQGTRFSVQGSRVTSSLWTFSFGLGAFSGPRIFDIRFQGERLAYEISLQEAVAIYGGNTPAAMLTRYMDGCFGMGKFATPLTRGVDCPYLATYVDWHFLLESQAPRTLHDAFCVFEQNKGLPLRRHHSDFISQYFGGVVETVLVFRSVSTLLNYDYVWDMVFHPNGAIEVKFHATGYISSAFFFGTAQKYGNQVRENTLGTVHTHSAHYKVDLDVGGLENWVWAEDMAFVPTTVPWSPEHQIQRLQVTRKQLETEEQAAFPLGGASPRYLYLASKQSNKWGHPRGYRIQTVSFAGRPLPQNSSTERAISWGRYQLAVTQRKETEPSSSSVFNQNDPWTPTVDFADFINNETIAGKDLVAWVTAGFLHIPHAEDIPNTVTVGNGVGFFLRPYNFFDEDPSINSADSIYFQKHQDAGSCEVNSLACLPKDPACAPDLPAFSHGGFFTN
MEASUREMENT_NOTES: Inhibition of semicarbazide sensitive amine oxidase (SSAO), radiochemical
Type: biochemical
MEASUREMENT_TYPE: IC50 (nM)
State just the number; it will be interpreted in nM.

Give the measured IC50 of C#CCN(Cc1ccc(O)c2ncccc12)C(C#N)CCC1CCN(Cc2ccccc2)CC1 (stereo not shown) [Compound 6] .
2010

----------
SYSTEM_TESTED: equine serum butyrylcholinesterase (eqBuChE) (Equus caballus, UniProt P81908)
Sequence (P81908 whole entry): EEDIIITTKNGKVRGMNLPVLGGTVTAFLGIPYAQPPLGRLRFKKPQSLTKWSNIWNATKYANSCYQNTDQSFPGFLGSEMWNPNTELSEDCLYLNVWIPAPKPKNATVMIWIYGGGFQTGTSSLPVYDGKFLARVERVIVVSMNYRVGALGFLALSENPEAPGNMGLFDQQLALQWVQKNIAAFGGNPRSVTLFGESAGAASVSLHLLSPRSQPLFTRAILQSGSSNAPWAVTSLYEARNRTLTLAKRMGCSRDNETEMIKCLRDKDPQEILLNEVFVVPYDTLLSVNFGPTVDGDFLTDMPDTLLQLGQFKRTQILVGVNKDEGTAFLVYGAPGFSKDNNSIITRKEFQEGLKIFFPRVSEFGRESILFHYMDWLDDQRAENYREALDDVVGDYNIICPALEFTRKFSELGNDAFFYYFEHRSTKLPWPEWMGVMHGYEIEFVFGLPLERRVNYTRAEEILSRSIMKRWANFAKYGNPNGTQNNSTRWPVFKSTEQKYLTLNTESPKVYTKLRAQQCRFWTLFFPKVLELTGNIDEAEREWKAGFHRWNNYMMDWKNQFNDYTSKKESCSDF
MEASUREMENT_NOTES: biochemical
Assay type: biochemical
APPLIED_CONDITIONS: ratio of IC50 values
This section presents compounds with their documented BuChE/ AChE values.
Give the figure only, with no unit attached.

// known answers, use as guide
Give the measured BuChE/ AChE of C#CCN(Cc1ccc(O)c2ncccc12)CC1CCN(Cc2ccccc2)CC1 .
0.75

Try the compound C#CCN(Cc1ccc(O)c2ncccc12)C(C#N)CCC1CCN(Cc2ccccc2)CC1 (centres unmarked)
0.92

Try the compound C#CCN(CCCC1CCN(Cc2ccccc2)CC1)Cc1ccc(O)c2ncccc12
1.6

Try the compound C#CCN(Cc1ccc(O)c2ncccc12)C(C#N)C1CCN(Cc2ccccc2)CC1 (centres unmarked)
0.92

Others:
Give the measured BuChE/ AChE of C#CCN(CCC1CCN(Cc2ccccc2)CC1)Cc1ccc(O)c2ncccc12 .
2.8
